- Tested on: MCF-7 human breast cancer cells
- Test summary: MTT cell proliferation assay, MCF-7
- Assay type: cell-based
- Condition set: Homo sapiens, MCF7; MCF-7 cells, MTT, SEM < 10%; read-out: GI50s MCF-7
Hi! Just check whether IC50 is below 2 µM. Below gives 1, equal or above gives 0.

Molecule	Qualitative label
CC1=C(/C=C/C(C)=C/C=C/C(C)=C/C(=O)Nc2ccc(O)cc2)C(C)(C)CCC1 [Compound 4-HPR, N-(4-hydroxyphenyl) retinamide, reference compound]	0
CC1=C(/C=C/C(C)=C/C=C/C(C)=C\C(=O)NCc2ccc(O)cc2)C(C)(C)CC=C1c1cncnc1	0
CC1=C(/C=C/C(C)=C/C=C/C(C)=C\C(=O)NCc2cccc(F)c2)C(C)(C)CCC1n1ccnc1 (stereo not shown)	1
CC1=C(/C=C/C(C)=C/C=C/C(C)=C\C(=O)NCc2ccc(F)cc2)C(C)(C)CCC1n1ccnc1 (stereo not shown)	1
CC1=C(/C=C/C(C)=C/C=C/C(C)=C\C(=O)NCCc2ccc(O)cc2)C(C)(C)CCC1n1ccnc1 (stereo not shown)	1
CC1=C(/C=C/C(C)=C/C=C/C(C)=C\C(=O)Nc2ccccc2)C(C)(C)CCC1n1ccnc1 (stereo not shown)	1
CC1=C(/C=C/C(C)=C/C=C/C(C)=C\C(=O)Nc2ccccc2)C(C)(C)CC=C1c1cncnc1	0

---

# maps each entry to its pIC50
- Test system: MCF-7, MDA-MB-231, MDA-MB-468 and SKBR-3 human breast cancer cells
- Test summary: MTT cell proliferation assay, four breast cancer cell lines together
- Type: cell-based
- Condition set: range across the four BC cell lines, read-out: GI50s, range over the BC cell lines
pIC50: −log10 of the molar value.

Compound	pIC50
CC1=C(/C=C/C(C)=C/C=C/C(C)=C\C(=O)Nc2ccccc2)C(C)(C)CCC1n1ccnc1 (centres unmarked) [Compound 16]	5.60 to 5.76
CC1=C(/C=C/C(C)=C/C=C/C(C)=C\C(=O)NCc2ccccc2)C(C)(C)CCC1n1ccnc1 (centres unmarked) [Compound 21]	4.97 to 5.23

---

# maps each entry to its pIC50
- System: MDA-MB-231 human breast cancer cells
- Test summary: MTT cell proliferation assay, MDA-MB-231
- Type: cell-based
- Condition set: MDA-MB-231 cells, SEM < 10%, read-out: GI50s MDA-MB-231
pIC50: −log10 of the molar value.

Molecule	pIC50
CC1=C(/C=C/C(C)=C/C=C/C(C)=C\C(=O)NCc2ccc(O)cc2)C(C)(C)CC=C1c1cncnc1 [Compound 39]	4.94
CC1=C(/C=C/C(C)=C/C=C/C(C)=C\C(=O)Nc2cccc(F)c2)C(C)(C)CCC1n1ccnc1 (stereo not drawn) [Compound 20]	5.07
CC1=C(/C=C/C(C)=C/C=C/C(C)=C\C(=O)Nc2ccc(O)cc2)C(C)(C)CCC1n1ccnc1 (stereo not drawn) [Compound 17]	4.88
